Molecular target: hPI3Kβ (PIK3CB wt/PIK3R1) (Homo sapiens, UniProt P42338)
Sequence (P42338 whole entry): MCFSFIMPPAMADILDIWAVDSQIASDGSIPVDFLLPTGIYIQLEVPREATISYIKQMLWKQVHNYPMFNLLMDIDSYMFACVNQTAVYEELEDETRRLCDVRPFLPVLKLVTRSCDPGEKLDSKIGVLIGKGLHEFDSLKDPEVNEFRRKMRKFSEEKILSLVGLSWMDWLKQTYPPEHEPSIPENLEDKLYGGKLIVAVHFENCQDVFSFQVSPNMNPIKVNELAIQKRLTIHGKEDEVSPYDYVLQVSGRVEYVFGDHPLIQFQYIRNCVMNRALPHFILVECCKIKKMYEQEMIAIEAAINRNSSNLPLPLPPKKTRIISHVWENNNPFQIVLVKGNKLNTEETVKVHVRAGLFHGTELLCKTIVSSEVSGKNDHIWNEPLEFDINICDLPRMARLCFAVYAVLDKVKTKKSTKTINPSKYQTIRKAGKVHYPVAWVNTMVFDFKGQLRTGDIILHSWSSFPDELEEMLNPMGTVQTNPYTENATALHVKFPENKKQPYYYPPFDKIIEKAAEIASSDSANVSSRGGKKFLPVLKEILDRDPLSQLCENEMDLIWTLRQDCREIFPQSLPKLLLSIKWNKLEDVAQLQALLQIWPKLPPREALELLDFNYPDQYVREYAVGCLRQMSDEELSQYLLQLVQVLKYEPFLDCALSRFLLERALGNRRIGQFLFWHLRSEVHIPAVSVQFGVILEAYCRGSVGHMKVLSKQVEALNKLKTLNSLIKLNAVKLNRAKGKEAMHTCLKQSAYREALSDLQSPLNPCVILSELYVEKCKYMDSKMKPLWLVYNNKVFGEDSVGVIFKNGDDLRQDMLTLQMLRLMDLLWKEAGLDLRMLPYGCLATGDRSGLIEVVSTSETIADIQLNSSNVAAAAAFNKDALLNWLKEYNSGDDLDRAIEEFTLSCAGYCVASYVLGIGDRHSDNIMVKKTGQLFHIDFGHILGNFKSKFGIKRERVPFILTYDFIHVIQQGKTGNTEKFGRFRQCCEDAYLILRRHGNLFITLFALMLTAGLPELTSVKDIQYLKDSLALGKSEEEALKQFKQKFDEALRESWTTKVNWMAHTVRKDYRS
Sequence (P27986 whole entry partner): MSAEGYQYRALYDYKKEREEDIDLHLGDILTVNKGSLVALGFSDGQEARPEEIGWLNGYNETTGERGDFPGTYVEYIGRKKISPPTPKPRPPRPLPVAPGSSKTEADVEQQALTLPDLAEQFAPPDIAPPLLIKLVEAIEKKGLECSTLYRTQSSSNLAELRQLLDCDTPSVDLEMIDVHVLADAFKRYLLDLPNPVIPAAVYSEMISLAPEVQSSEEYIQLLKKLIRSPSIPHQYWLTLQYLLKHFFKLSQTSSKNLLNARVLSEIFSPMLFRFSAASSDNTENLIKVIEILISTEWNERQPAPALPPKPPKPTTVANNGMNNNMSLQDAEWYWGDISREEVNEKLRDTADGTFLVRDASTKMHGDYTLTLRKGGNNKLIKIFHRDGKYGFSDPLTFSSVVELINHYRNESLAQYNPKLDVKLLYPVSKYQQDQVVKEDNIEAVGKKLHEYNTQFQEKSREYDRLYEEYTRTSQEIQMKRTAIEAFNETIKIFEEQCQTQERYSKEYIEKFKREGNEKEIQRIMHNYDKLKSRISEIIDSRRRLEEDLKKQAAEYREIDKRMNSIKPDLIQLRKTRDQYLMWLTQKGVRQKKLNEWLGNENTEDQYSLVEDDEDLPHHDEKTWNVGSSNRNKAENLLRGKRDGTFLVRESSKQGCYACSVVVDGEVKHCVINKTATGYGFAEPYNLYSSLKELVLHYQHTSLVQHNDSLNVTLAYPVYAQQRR
Assay: lipid kinase assay (ADP-Glo), PI3Kβ
Conditions: Table 2; mean of at least three determinations, 95 % confidence intervals
Description: […] The residual PI3K lipid kinase activity in the presence of each molecule at different concentrations was related to the control, intended as the recombinant protein in the presence of DMSO alone and was expressed as a percentage. To derive the IC50 value, all data (% of lipid kinase activity) were plotted on a dose–response curve (Graph Pad software), and the IC50 was calculated by using nonlinear regression fit (equation [log agonist] versus response).
With a cut-off of 100 nM, any IC50 strictly below it is called 1; any IC50 meeting it or above is called 0.

compound | assayed_system | category_label
O=C(O)c1ccc(-n2cc(-c3cccc4c(=O)cc(N5CCOCC5)[nH]c34)nn2)cc1 | hPI3Kβ (PIK3CB wt/PIK3R1) (Homo sapiens, UniProt P42338) | 0

is_below(IC50, 100 nM) for COc1cccc(-n2cc(-c3cccc4c(=O)cc(N5CCOCC5)[nH]c34)nn2)c1 ?
0

is_below(IC50, 100 nM) for O=c1cc(N2CCOCC2)[nH]c2c(-c3cn(-c4ccccc4)nn3)cccc12 ?
0
